Consider the following binders and their measured Kd readings.
Molecular target: T1, recombinant human Trop-2/Fc/His fusion protein (manufactured by R&D) (human, UniProt P09758 27-274, limits assumed)
T1 construct: Bought reagent; also called Trop-2/Fc/His chimeric protein; recombinant Trop-2
T1 sequence: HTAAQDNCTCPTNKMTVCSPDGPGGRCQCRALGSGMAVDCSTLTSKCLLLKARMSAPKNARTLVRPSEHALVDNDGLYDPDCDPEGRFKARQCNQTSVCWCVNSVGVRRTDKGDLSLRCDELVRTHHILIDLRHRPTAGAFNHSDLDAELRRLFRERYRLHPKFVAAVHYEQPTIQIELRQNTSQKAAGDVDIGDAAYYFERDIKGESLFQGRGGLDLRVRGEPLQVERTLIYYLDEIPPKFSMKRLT
Experiment: SPR (Biacore T100) on captured Trop-2/Fc/His; summary sentence of Table 6

Example results:
BINDER: KM4097 humanized antibody HV3aLV0 (antibody, V domains shown, Expressed from pKANTEX93 (human constant regions) in FUT8 knockout CHO cells; no fucose attached) VH: QVQLVQSGPEVKKPGASVKVSCKASGYTFTIYWLGWVRQAPGQGLEWMGNIFPGSAYINYNEKFKGKVTITADTSTSTAYMELSSLRSEDTAVYFCAREGSNSGYWGQGTLVTVSS VL: DIVMTQSPDSLAVSLGERATINCKSSQSLLNSGNQQNYLAWYQQKPGQPPKLLIYGASTRESGVPDRFSGSGSGTDFTLTISSLQAEDVAVYYCQSDHIYPYTFGQGTKLEIK
ATTRIBUTE_MEASURED: Kd
REPORTED_RESULT: ≤ 0.5 nM
--
BINDER: KM4097 humanized antibody HV10LV2 (antibody, V domains shown, Expressed from pKANTEX93 (human constant regions) in FUT8 knockout CHO cells; no fucose attached) VH: QVQLVQSGPEVVKPGASVKISCKASGYTFTIYWLGWVKQAPGQGLEWIGNIFPGSAYINYNEKFKGKATLTADTSTSTAYMELSSLRSEDTAVYFCAREGSNSGYWGQGTLLTVSS VL: DIVMTQSPDSLAVSLGERVTINCKSSQSLLNSGNQQNYLAWYQQKPGQPPKLLIYGASTRESGVPDRFSGSGSGTDFTLTISSVQAEDVAVYYCQSDHIYPYTFGQGTKLEIK
ATTRIBUTE_MEASURED: Kd
REPORTED_RESULT: ≤ 0.5 nM

Next:
# input Need Kd of KM4097 humanized antibody HV0LV0 (antibody, V domains shown, Expressed from pKANTEX93 (human constant regions) in FUT8 knockout CHO cells; no fucose attached) VH: QVQLVQSGAEVKKPGASVKVSCKASGYTFTIYWLGWVRQAPGQGLEWMGNIFPGSAYINYNEKFKGRVTITADTSTSTAYMELSSLRSEDTAVYYCAREGSNSGYWGQGTLVTVSS VL: DIVMTQSPDSLAVSLGERATINCKSSQSLLNSGNQQNYLAWYQQKPGQPPKLLIYGASTRESGVPDRFSGSGSGTDFTLTISSLQAEDVAVYYCQSDHIYPYTFGQGTKLEIK , thanks.
# output ≤ 1 nM
